- Test system: Escherichia coli TOP10
- assay notes: shrunken log2 fold change of peptide-encoding DNA abundance (4.5 h post-induction vs induction); higher = less antimicrobial activity (less host growth inhibition)
- reported conditions: time post-induction: 4.5 h; library: site-saturation at positions 5, 18, 19, 20
Decision: shrunken log2 fold change compared against -0.01; not below it gives MET, below it gives NOT MET.

{"columns": ["residues", "target", "assigned class"],
 "data": [
  ["RRIRRRPPRLPRPRPRPFYRPRP", "Escherichia coli TOP10", "NOT MET"],
  ["RRIRMRPPRLPRPRPRPQVVPRP", "Escherichia coli TOP10", "MET"],
  ["RRIRDRPPRLPRPRPRPNTTPRP", "Escherichia coli TOP10", "NOT MET"],
  ["RRIRQRPPRLPRPRPRPYEPPRP", "Escherichia coli TOP10", "MET"],
  ["RRIRTRPPRLPRPRPRPMKIPRP", "Escherichia coli TOP10", "MET"]
]}

input: Is it the case that RRIRMRPPRLPRPRPRPKIGPRP has shrunken log2 fold change reaching or exceeding -0.01?
output: NOT MET

input: Is it the case that RRIRNRPPRLPRPRPRPQYEPRP has shrunken log2 fold change reaching or exceeding -0.01?
output: NOT MET

input: Is it the case that RRIRHRPPRLPRPRPRPDGFPRP has shrunken log2 fold change reaching or exceeding -0.01?
output: NOT MET

input: Is it the case that RRIRGRPPRLPRPRPRPVAHPRP has shrunken log2 fold change reaching or exceeding -0.01?
output: MET

====

Below is a list of entries, each paired with its recorded shrunken log2 fold change value.
- System: Escherichia coli TOP10
- assay notes: shrunken log2 fold change of peptide-encoding DNA abundance (4.5 h post-induction vs induction); higher = less antimicrobial activity (less host growth inhibition)
- reported conditions: time post-induction: 4.5 h; library: site-saturation at positions 5, 18, 19, 20
Response field accepts a number only; no unit should be typed.

In the examples that follow, each entry is paired with its recorded shrunken log2 fold change.
{"columns": ["residues", "shrunken log2 fold change"],
 "data": [
  ["RRIRGRPPRLPRPRPRPELVPRP", 1.58],
  ["RRIRRRPPRLPRPRPRPNQKPRP", -0.128],
  ["RRIRERPPRLPRPRPRPMWGPRP", -0.016],
  ["RRIRSRPPRLPRPRPRPSIYPRP", -0.00286],
  ["RRIRHRPPRLPRPRPRPRTSPRP", 0.245],
  ["RRIRGRPPRLPRPRPRPMQCPRP", -0.0159],
  ["RRIRNRPPRLPRPRPRPVNPPRP", -0.216],
  ["RRIRTRPPRLPRPRPRPHANPRP", -0.254],
  ["RRIRMRPPRLPRPRPRPEWSPRP", 0.721],
  ["RRIRPRPPRLPRPRPRPDCYPRP", -0.0771]
]}

The sequence identified as RRIRDRPPRLPRPRPRPHFPPRP registered its shrunken log2 fold change at -0.0339

The sequence identified as RRIRSRPPRLPRPRPRPNGTPRP registered its shrunken log2 fold change at -0.188

The sequence identified as RRIRMRPPRLPRPRPRPACFPRP registered its shrunken log2 fold change at 0.421

The sequence identified as RRIRARPPRLPRPRPRPHHIPRP registered its shrunken log2 fold change at -0.345

The sequence identified as RRIRERPPRLPRPRPRPVMHPRP registered its shrunken log2 fold change at -0.0979

====

Below is a list of entries, each paired with its recorded shrunken log2 fold change value.
- Tested on: Escherichia coli TOP10
- assay notes: shrunken log2 fold change of peptide-encoding DNA abundance (4.5 h post-induction vs induction); higher = less antimicrobial activity (less host growth inhibition)
- reported conditions: time post-induction: 4.5 h; library: site-saturation at positions 5, 18, 19, 20
Response field accepts a number only; no unit should be typed.

In the examples that follow, each entry is paired with its recorded shrunken log2 fold change.
{"columns": ["residues", "endpoint value"],
 "data": [
  ["RRIRPRPPRLPRPRPRPVPLPRP", 0.0768],
  ["RRIRVRPPRLPRPRPRPFEEPRP", -0.000457]
]}

The sequence identified as RRIRRRPPRLPRPRPRPDNEPRP registered its shrunken log2 fold change at 0.207

The sequence identified as RRIRIRPPRLPRPRPRPTTKPRP registered its shrunken log2 fold change at -0.664

The sequence identified as RRIRARPPRLPRPRPRPTDSPRP registered its shrunken log2 fold change at 0.00832

The sequence identified as RRIRRRPPRLPRPRPRPCWQPRP registered its shrunken log2 fold change at 0.285

The sequence identified as RRIRSRPPRLPRPRPRPLMEPRP registered its shrunken log2 fold change at -0.0249

====

Below is a list of entries, each paired with its recorded shrunken log2 fold change value.
- Test system: Escherichia coli TOP10
- assay notes: shrunken log2 fold change of peptide-encoding DNA abundance (4.5 h post-induction vs induction); higher = less antimicrobial activity (less host growth inhibition)
- reported conditions: time post-induction: 4.5 h; library: site-saturation at positions 5, 18, 19, 20
Response field accepts a number only; no unit should be typed.

In the examples that follow, each entry is paired with its recorded shrunken log2 fold change.
{"columns": ["residues", "shrunken log2 fold change"],
 "data": [
  ["RRIRIRPPRLPRPRPRPDSRPRP", -0.0316],
  ["RRIRERPPRLPRPRPRPNIKPRP", -0.788],
  ["RRIRFRPPRLPRPRPRPMDVPRP", -0.0444],
  ["RRIRVRPPRLPRPRPRPYYYPRP", -0.796],
  ["RRIRARPPRLPRPRPRPPRDPRP", 1.04],
  ["RRIRNRPPRLPRPRPRPQQPPRP", 0.0468],
  ["RRIRPRPPRLPRPRPRPEFQPRP", 0.0778],
  ["RRIRFRPPRLPRPRPRPACSPRP", 0.0139],
  ["RRIRSRPPRLPRPRPRPYQAPRP", -0.0507],
  ["RRIRRRPPRLPRPRPRPNSNPRP", -0.302]
]}

The sequence identified as RRIRWRPPRLPRPRPRPMWYPRP registered its shrunken log2 fold change at -0.0539

The sequence identified as RRIRRRPPRLPRPRPRPDWSPRP registered its shrunken log2 fold change at 0.182

The sequence identified as RRIRPRPPRLPRPRPRPLDRPRP registered its shrunken log2 fold change at -0.000978

The sequence identified as RRIRQRPPRLPRPRPRPVRMPRP registered its shrunken log2 fold change at 0.149

The sequence identified as RRIRNRPPRLPRPRPRPLTFPRP registered its shrunken log2 fold change at -0.0233

====

- System: Escherichia coli TOP10
- assay notes: shrunken log2 fold change of peptide-encoding DNA abundance (4.5 h post-induction vs induction); higher = less antimicrobial activity (less host growth inhibition)
- reported conditions: time post-induction: 4.5 h; library: site-saturation at positions 5, 18, 19, 20
Category key, based on recorded shrunken log2 fold change: low (below -0.002), mid (-0.002 to below 0.09), high (0.09 or more)

{"columns": ["residues", "assigned class"],
 "data": [
  ["RRIRNRPPRLPRPRPRPMKKPRP", "mid"],
  ["RRIRHRPPRLPRPRPRPHWTPRP", "mid"],
  ["RRIRLRPPRLPRPRPRPAREPRP", "high"],
  ["RRIRQRPPRLPRPRPRPYMQPRP", "low"],
  ["RRIRMRPPRLPRPRPRPDELPRP", "high"]
]}

input: Form field 'band' for RRIRSRPPRLPRPRPRPDSTPRP
output: low

input: Form field 'band' for RRIRARPPRLPRPRPRPFFGPRP
output: high

====

- Test system: Escherichia coli TOP10;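 further: peptides expressed intracellularly from a pBAD plasmid library in pooled LB shake-flask culture, induced with 0.3% L-arabinose, DNA abundance read by NGS, three biological replicates, DESeq2 with apeglm shrinkage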
- assay notes: shrunken log2 fold change of peptide-encoding DNA abundance (4.5 h post-induction vs induction); higher = less antimicrobial activity (less host growth inhibition)
- reported conditions: time post-induction: 4.5 h; library: site-saturation at positions 5, 18, 19, 20
Below is a list of entries, each paired with its recorded shrunken log2 fold change value.
Response field accepts a number only; no unit should be typed.

In the examples that follow, each entry is paired with its recorded shrunken log2 fold change.
{"columns": ["residues", "shrunken log2 fold change"],
 "data": [
  ["RRIRVRPPRLPRPRPRPMCPPRP", 0.0857],
  ["RRIRYRPPRLPRPRPRPYIWPRP", -0.29],
  ["RRIRHRPPRLPRPRPRPRPVPRP", 0.22],
  ["RRIRCRPPRLPRPRPRPYRFPRP", -0.746],
  ["RRIRERPPRLPRPRPRPITQPRP", 0.0291],
  ["RRIRIRPPRLPRPRPRPTVNPRP", -0.608]
]}

The sequence identified as RRIRFRPPRLPRPRPRPYMVPRP registered its shrunken log2 fold change at -0.953

The sequence identified as RRIRARPPRLPRPRPRPREAPRP registered its shrunken log2 fold change at 1.25

The sequence identified as RRIRRRPPRLPRPRPRPDFLPRP registered its shrunken log2 fold change at 1.31

The sequence identified as RRIRKRPPRLPRPRPRPHPMPRP registered its shrunken log2 fold change at 0.224

The sequence identified as RRIRRRPPRLPRPRPRPFAGPRP registered its shrunken log2 fold change at -0.0164

The sequence identified as RRIRWRPPRLPRPRPRPVMTPRP registered its shrunken log2 fold change at 0.569
